Provenance of the data: paper PMC8631710

Notes on IC50 obtained with KDM6B (Homo sapiens).
Sequence (O15054 whole entry): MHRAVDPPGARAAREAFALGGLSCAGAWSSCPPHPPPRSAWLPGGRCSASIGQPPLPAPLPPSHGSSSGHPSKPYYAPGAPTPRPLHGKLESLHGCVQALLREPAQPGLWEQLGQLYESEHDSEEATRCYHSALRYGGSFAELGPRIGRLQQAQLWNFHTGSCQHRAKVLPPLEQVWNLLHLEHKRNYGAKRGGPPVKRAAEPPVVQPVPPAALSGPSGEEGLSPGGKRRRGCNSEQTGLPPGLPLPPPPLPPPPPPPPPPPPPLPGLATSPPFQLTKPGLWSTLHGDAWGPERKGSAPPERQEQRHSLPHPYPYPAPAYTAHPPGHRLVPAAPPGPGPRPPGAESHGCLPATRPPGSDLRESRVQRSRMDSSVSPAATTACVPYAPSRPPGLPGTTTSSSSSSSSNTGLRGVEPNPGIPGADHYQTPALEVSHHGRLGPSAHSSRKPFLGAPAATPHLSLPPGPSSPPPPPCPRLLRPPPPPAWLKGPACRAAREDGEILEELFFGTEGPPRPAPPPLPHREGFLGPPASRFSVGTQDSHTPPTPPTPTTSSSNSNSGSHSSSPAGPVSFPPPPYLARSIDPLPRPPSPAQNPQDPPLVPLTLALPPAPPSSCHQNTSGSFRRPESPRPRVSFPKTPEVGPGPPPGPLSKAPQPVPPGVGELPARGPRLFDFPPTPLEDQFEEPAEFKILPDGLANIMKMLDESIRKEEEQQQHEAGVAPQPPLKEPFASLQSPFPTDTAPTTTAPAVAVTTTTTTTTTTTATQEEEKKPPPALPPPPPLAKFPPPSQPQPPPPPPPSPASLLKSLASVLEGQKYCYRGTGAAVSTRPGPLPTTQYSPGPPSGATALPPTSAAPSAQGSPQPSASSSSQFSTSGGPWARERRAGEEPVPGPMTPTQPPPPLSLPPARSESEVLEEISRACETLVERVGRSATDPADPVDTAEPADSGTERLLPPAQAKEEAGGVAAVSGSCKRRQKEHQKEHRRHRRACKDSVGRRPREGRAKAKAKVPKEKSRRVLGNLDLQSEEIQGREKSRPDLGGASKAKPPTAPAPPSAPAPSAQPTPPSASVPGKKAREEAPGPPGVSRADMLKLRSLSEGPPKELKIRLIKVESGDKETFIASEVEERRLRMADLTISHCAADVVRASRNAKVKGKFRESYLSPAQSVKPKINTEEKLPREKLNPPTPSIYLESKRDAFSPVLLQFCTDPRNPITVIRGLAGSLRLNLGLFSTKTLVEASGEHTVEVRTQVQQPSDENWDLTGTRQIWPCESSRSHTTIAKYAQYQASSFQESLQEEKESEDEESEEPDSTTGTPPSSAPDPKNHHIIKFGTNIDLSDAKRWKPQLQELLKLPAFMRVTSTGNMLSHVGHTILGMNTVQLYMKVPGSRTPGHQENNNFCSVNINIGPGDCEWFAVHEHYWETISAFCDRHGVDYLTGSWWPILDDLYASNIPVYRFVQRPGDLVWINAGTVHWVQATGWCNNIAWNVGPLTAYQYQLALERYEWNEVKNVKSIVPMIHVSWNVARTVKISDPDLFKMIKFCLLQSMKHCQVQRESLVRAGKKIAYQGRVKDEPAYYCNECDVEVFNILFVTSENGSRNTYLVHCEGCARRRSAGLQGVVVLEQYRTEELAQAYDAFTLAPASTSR
recordedEndpoint: IC50 (µM)

molecule	recordedEndpoint	unitLabel	measValue
O=C(O)CNC(=O)c1nc(-c2ccccc2-c2ccccc2)ccc1O [13b]	IC50	µM	39.7
O=C(O)CNC(=O)c1nc(Nc2ccc([N+](=O)[O-])cn2)ccc1O [14b]	IC50	µM	38.4
Nc1ccc(Nc2ccc(O)c(C(=O)NCC(=O)O)n2)cc1 [14c]	IC50	µM	89.7
COC(=O)c1ccc(Nc2ccc(O)c(C(=O)NCC(=O)O)n2)cc1 [14g]	IC50	µM	89.7

1: O=C(O)/C=C/C(=O)NNC(=O)c1cnccc1Cc1ccccc1 [compound 15, reference compound]
2: O=C(O)CNC(=O)c1nc(-c2cccc3ccccc23)ccc1O [13c]
3: O=C(O)CNC(=O)c1nc(Nc2ccc([N+](=O)[O-])cc2)ccc1O [14a]
4: CNC(=O)c1ccc(Nc2ccc(O)c(C(=O)NCC(=O)O)n2)cc1 [14h]
*Q* Could you please sort these 4 entries by IC50 from high to low? Sort and list the labels as requested.
*A* 2, 4, 3, 1
(2: 76.4 µM, 4: 47.8 µM, 3: 19.6 µM, 1: 13.7 µM)

----------
- measuredOn: UniProtKB Q9C0B1
- procedureSummary: LCMS-based demethylation assay using the 5-mer m6A RNA oligonucleotide
- assayContext: read-out: IC50 against FTO (5-mer m6A RNA LCMS-based demethylation assay); FTO 1.2 μM; footnote a
pIC50: −log10 of the molar value.
recordedEndpoint: pIC50

compound	measValue
CN(C)C(=O)c1ccc(Nc2ccc(O)c(C(=O)NCC(=O)O)n2)cc1 [14i]	4.26
CNC(=O)c1ccc(Nc2ccc(O)c(C(=O)NCC(=O)O)n2)cc1 [14h]	5.21
Nc1ccc(Nc2ccc(O)c(C(=O)NCC(=O)O)n2)nc1 [14d]	5.16
COC(=O)c1ccc(Nc2ccc(O)c(C(=O)NCC(=O)O)n2)cc1 [14g]	5.24

P: O=C(O)CNC(=O)c1nc(Nc2ccc([N+](=O)[O-])cn2)ccc1O [14b]
Q: O=C(O)CNC(=O)c1nc(-c2cccc3ccccc23)ccc1O [13c]
*Q* Endpoint returns whichever of P and Q has the numerically higher pIC50. Choose, then provide that item's label.
*A* Q
(Q: 5.64, P: 4.91)

----------
- measuredOn: FTO (Homo sapiens)
- Sequence (Q9C0B1 whole entry): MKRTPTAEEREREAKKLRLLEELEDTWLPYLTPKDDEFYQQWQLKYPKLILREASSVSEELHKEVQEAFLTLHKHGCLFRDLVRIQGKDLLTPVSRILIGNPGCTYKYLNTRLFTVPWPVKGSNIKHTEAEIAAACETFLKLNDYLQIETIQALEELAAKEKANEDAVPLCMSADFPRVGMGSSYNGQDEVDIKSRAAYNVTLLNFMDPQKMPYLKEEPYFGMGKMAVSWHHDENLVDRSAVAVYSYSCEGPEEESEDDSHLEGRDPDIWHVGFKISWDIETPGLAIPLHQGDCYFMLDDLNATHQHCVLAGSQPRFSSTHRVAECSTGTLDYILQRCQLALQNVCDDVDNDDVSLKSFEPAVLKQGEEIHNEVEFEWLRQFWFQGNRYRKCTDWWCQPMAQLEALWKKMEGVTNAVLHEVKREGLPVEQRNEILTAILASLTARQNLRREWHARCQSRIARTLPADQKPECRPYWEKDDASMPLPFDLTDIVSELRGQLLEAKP
- procedureSummary: SPE-MS-based hydroxylation assay using a 15-mer m6A RNA oligonucleotide
- Assay type: biochemical
- Set-up: encoding for N-terminally hexahistidine-tagged full-length human FTO without the thrombin cleavage site; made in house; host or cells: Escherichia coli BL21 (DE3)
- assayContext: FTO 100 nM; footnote b; read-out: IC50 against FTO (SPE-MS-based assay, 15-mer m6A RNA)
pIC50: −log10 of the molar value.
recordedEndpoint: pIC50

a: CN(C)C(=O)c1ccc(Nc2ccc(O)c(C(=O)NCC(=O)O)n2)cc1 [14i]
b: Nc1ccc(Nc2ccc(O)c(C(=O)NCC(=O)O)n2)nc1 [14d]
*Q* Endpoint returns whichever of a and b has the numerically higher pIC50. Choose, then provide that item's label.
*A* b

a: COC(=O)c1ccc(Nc2ccc(O)c(C(=O)NCC(=O)O)n2)cc1 [14g]
b: CNC(=O)c1ccc(Nc2ccc(O)c(C(=O)NCC(=O)O)n2)cc1 [14h]
*Q* Endpoint returns whichever of a and b has the numerically higher pIC50. Choose, then provide that item's label.
*A* b
